Here, each record is paired with measured pIC50 data.
- subject.of.test: UniProt P04150
- Sequence (P04150 whole entry): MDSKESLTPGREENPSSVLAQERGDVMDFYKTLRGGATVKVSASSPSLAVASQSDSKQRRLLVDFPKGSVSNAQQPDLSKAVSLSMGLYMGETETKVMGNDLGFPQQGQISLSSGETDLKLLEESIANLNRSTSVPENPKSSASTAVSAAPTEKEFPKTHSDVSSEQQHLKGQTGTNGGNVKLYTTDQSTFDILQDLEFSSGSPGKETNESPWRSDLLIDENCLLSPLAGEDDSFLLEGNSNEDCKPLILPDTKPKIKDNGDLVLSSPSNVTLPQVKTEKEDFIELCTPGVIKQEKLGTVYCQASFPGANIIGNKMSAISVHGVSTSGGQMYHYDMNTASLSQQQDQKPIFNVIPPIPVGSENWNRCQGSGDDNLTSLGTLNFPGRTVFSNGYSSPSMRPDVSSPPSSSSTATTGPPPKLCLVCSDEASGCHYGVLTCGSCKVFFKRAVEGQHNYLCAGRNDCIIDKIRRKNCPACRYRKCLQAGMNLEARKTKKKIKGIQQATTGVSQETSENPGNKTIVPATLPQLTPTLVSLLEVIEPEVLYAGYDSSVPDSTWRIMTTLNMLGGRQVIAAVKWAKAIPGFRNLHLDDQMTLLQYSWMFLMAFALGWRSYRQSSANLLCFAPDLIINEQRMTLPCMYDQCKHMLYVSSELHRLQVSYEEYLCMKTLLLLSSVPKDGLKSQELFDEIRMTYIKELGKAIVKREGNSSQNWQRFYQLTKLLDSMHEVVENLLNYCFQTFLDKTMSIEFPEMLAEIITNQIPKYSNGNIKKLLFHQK
- protocol.notes: Modulation of glucocorticoid receptor (unknown origin) transfected in human HeLa cells assessed as transrepression by measuring inhibition of TNF-alpha induced NF-kappaB signalling incubated for 18 hrs by dual-luciferase reporter based assay
- Assay type: cell-based
Just the number, please; pIC50 means minus log10 of the concentration in mol/L.

Solved entries:
Q. Look up pIC50: O=C(c1ccco1)N1CCCc2cc(NS(=O)(=O)c3ccc(C(F)(F)F)cc3)ccc21
A. 5.58

Q. Look up pIC50: COc1cc(C)c(Cl)cc1S(=O)(=O)Nc1ccc2c(c1)CCCN2C(=O)c1ccc(F)cc1
A. 6.46

Q. Look up pIC50: COc1cc(C)c(Cl)cc1S(=O)(=O)Nc1ccc2c(c1)CCCN2C(=O)c1ccc2ccccc2c1
A. 6.48

More entries:
Q. Look up pIC50: COc1ccc(C(=O)N2CCCc3cc(NS(=O)(=O)c4cc(Cl)c(C)cc4OC)ccc32)cc1OC
A. 6.35

Q. Look up pIC50: O=C(c1ccco1)N1CCCc2cc(NS(=O)(=O)c3ccc(-c4ccccc4)cc3)ccc21
A. 6.09

Q. Look up pIC50: CC(C)(C)c1ccc(S(=O)(=O)Nc2ccc3c(c2)CCCN3C(=O)c2ccco2)cc1
A. 6.74

Q. Look up pIC50: COc1ccc(S(=O)(=O)Nc2ccc3c(c2)CCCN3C(=O)c2ccco2)cc1
A. 5.74

Q. Look up pIC50: COc1cc(C)c(Cl)cc1S(=O)(=O)Nc1ccc2c(c1)CCCN2C(=O)c1ccccc1
A. 8.05
